- EXPERIMENTAL PROTOCOL: Solubility of the compound in fasted state simulated intestinal fluid at compound to Lipoid S100 ratio 1:1 after 3 hrs by HPLC analysis in presence of 5:1 molar ratio of Lipoid S100 to tween 80
- Assay type: physicochemical
Entries annotated with measured solubility at 3 h
Give the number; µg/mL is assumed, so skip it.

# input Quick one: give measured solubility at 3 h for C[C@H]1[C@H](C)CC[C@]2(C)CC[C@]3(C)C(=CC(=O)[C@@H]4[C@@]5(C)CC[C@@H](O)[C@](C)(C(=O)O)[C@@H]5CC[C@]43C)[C@H]12 [11-KETO BOSWELLIC ACID]
# output 109

# input Item CC(=O)O[C@@H]1CC[C@@]2(C)[C@@H](CC[C@]3(C)[C@@H]2C(=O)C=C2[C@@H]4[C@@H](C)[C@H](C)CC[C@]4(C)CC[C@]23C)[C@@]1(C)C(=O)O [AKBA] : provide solubility at 3 h
# output 18.2
